# experimentalTarget: human TRPA1 (Homo sapiens (Human), UniProt O75762)
# Sequence (O75762 whole entry): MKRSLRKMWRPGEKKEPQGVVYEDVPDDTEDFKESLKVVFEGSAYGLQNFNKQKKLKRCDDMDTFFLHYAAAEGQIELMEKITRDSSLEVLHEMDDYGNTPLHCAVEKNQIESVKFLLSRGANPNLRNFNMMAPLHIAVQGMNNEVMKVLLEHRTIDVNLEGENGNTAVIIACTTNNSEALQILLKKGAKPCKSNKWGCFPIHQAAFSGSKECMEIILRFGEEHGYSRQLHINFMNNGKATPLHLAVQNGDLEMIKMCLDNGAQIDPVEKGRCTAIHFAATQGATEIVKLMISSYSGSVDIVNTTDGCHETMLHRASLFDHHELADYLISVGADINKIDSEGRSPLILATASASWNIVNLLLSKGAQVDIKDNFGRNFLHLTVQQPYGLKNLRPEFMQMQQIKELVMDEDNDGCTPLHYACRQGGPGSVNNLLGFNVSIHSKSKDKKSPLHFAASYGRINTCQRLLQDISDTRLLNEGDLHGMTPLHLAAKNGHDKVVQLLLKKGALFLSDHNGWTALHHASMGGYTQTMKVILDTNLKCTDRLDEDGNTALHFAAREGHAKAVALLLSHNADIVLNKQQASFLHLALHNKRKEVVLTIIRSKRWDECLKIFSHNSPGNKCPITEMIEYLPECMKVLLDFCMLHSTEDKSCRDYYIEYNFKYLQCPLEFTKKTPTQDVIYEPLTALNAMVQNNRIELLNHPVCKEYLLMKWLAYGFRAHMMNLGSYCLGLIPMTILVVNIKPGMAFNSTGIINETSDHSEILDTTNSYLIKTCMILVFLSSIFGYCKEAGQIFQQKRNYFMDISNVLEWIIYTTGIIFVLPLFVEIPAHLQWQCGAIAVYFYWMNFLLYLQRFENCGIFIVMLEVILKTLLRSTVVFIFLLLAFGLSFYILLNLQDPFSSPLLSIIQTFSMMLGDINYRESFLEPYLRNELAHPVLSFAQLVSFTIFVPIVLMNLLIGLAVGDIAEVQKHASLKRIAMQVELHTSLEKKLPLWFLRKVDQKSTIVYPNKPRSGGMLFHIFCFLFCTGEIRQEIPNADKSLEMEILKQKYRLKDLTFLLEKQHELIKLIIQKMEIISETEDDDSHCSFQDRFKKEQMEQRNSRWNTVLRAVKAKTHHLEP
# protocolSummary: hTRPA1 CHO Ca2+ FLIPR assay (block of cinnamaldehyde induced calcium influx)
# Assay type: cell-based
# testSettings: CHO cells expressing TRPA1; 75 uM cinnamaldehyde; Hill coefficient fixed to 1.5; read-out: hTRPA1 (hTRPA1 CHO Ca2+ MAX EVO (IC50))
measurementKind: IC50 (nM)

// below: answered compounds
compound	IC50 / nM
Cn1cnc2ncn(Cc3nn([C@H]4C[C@H](c5ccc(F)cc5)C4)c(=O)o3)c(=O)c21	64.8
Cn1cnc2ncn(Cc3nn([C@H]4C[C@H](Oc5cccc(C#N)c5)C4)c(=O)o3)c(=O)c21	45.5

P. Cn1cnc2cnn(Cc3nn([C@H]4C[C@H](c5ccc(Cl)cc5)C4)c(=O)o3)c(=O)c21
Q. Cn1cnc2ncn(Cc3nn(CCc4ccc(OC(F)(F)F)cc4)c(=O)o3)c(=O)c21
R. Cc1ccnc2ncn(Cc3nn([C@H]4C[C@](F)(c5ccc(Cl)cc5)C4)c(=O)o3)c(=O)c12
S. Cc1cnc(C#N)c2ncn(Cc3nn(CCc4ccc(Cl)cc4)c(=O)o3)c(=O)c12
Q: Sort entries by IC50 from minimum to maximum value. I would appreciate it if you listed the labels in the requested order.
Result: S, R, P, Q

I. Cn1cnc2ncn(Cc3nn([C@@H]4C[C@@H](F)[C@@H](c5ccc(Cl)cc5)C4)c(=O)o3)c(=O)c21 (racemic)
II. Cn1cnc2ncn(Cc3nn(C[C@H](F)c4ccc(Br)cc4)c(=O)o3)c(=O)c21
Q: Between item I and item II , which reported IC50 is smaller? Refer to your chosen entry by its label in the reply.
Result: II
(II: 10 nM, I: 43.9 nM)

P. Cn1cnc2ncn(Cc3nn([C@H]4CC[C@H](c5ccccc5)C4)c(=O)o3)c(=O)c21 (racemic)
Q. Cn1cnc2ncn(Cc3nn([C@@H]4CC[C@@H](c5ccc(Cl)cc5)C4)c(=O)o3)c(=O)c21
Q: Lab note: record which item had the higher IC50, P or Q . Refer to your chosen entry by its label in the reply.
Result: P

P. Cc1ccnc2ncn(Cc3nn([C@H]4C[C@H](c5ccc(C#N)cc5)C4)c(=O)o3)c(=O)c12
Q. Cc1ccnc2ncn(Cc3nn(CCCOc4cccc(Cl)c4)c(=O)o3)c(=O)c12
R. O=c1c2cccnc2cnn1Cc1nn([C@H]2C[C@H](c3ccc(Cl)cc3)C2)c(=O)o1
Q: Sort entries by IC50 from minimum to maximum value. I would appreciate it if you listed the labels in the requested order.
Result: P, Q, R

a. Cn1cnc2ncn(Cc3nn(CCc4ccc(Cl)cc4)c(=O)o3)c2c1=O
b. Cc1ccnc2ncn(Cc3nn([C@H]4C[C@@](F)(c5ccc(C(F)(F)F)cc5)C4)c(=O)o3)c(=O)c12
Q: Lab note: record which item had the higher IC50, a or b . Refer to your chosen entry by its label in the reply.
Result: a

----------
# experimentalTarget: human TRPA1 (Homo sapiens (Human))
# protocolSummary: hTRPA1 CHO Ca2+ FLIPR assay (block of cinnamaldehyde induced calcium influx)
# Type: cell-based
# testSettings: CHO cells expressing TRPA1; 75 uM cinnamaldehyde; Hill coefficient fixed to 1.5; read-out: hTRPA1 (hTRPA1 CHO Ca2+ MAX EVO (IC50))
pIC50: −log10 of the molar value.
measurementKind: pIC50

compound	experimentalTarget	pIC50
COc1ccc(CCn2nc(Cn3cnc4ncn(C)c4c3=O)oc2=O)cc1	human TRPA1 (Homo sapiens (Human))	6.56

P. Cn1c(=O)ccc2ncn(Cc3nn(C[C@H](F)c4ccc(Cl)cc4)c(=O)o3)c(=O)c21 (racemic)
Q. Cc1cnc(Cl)c2ncn(Cc3nn(CCc4ccc(Cl)cc4)c(=O)o3)c(=O)c12
R. Cn1cnc2ncn(Cc3nn(CC(F)c4ccc5ccccc5c4)c(=O)o3)c(=O)c21 (stereo in doubt)
Q: Rank entries according to their pIC50, from the largest number down. I would appreciate it if you listed the labels in the requested order.
Result: R, Q, P
